Provenance of the data: patent US11415579B2

- tested target: human cyclin-dependent kinase 2 (Cdk2) (Homo sapiens, UniProt P24941)
- Construct: poly-histidine; made in house; host or cells: E. coli
- procedure summary: Kinetic thiol consumption assay with wild type Cdk2 (C177)
- Type: binding
- protocol conditions: Protein: Cdk2; cysteine position WT; in h^-1
Records here are stratified by Rate constant with Cdk2 WT; strata: lower level: < 0.007; middle level: ≥ 0.007 and < 0.02; upper level: ≥ 0.02

>>> cat("C=CC(=O)N1CC(OCCN(CC)CC)C1")
"lower level"
>>> cat("C=CC(=O)N1CC(OCc2cccc3ccccc23)C1")
"upper level"
>>> cat("C=CC(=O)N1CCN(c2cccc3cccnc23)CC1")
"middle level"
>>> cat("C=CC(=O)N1CCCN(Cc2noc(C3CC3)n2)CC1")
"middle level"

Form: Item = C=CC(=O)NCc1ccccc1 ; Class = ?
middle level

Assign a bin to C=CC(=O)NCC1(NC(=O)OC(C)(C)C)CCCCC1
upper level

Sort into band: C=CS(=O)(=O)c1ccccc1
upper level

State the band of C=CC(=O)N1CCN(C(=O)OCC)CC1c1cccs1 (stereo not drawn)
middle level

Category of O=S1(=O)C=CC(Br)C1 (stereo not drawn) , please.
upper level

// return the class label for C=CC(=O)N(C)C1CC(OCC)C12CCC2 (stereo not drawn)
middle level

The entry to classify is C=CC(=O)NCc1ccc(F)cc1 ; which class holds it?
lower level

Lab note: which band did C=CC(=O)N(C1CC1)C1CCCCC1C1CCCCC1 (stereo not drawn) land in?
middle level

In plain terms, what class is C=CC(=O)NC(Cc1ccccc1)C(O)CF (stereo not drawn) ?
lower level

# classify by Rate constant with Cdk2 WT band: C=CC(=O)Nc1cccc(-c2nnnn2C2CC2)c1
upper level

GET /class?item= C=CC(=O)Nc1cccc2ncccc12
upper level

Bin this entry: C=CC(=O)N1CCCC1CC1CC2CCC1C2 (stereo not drawn)
middle level

Pick a category. Item: C=CC(=O)Nc1cccc(Nc2ncnc3cc(OC)c(OC)cc23)c1
middle level

Hi, small favor: classify C=CC(=O)N1CCCCCC1c1cccnc1 (stereo not drawn) by its Rate constant with Cdk2 WT when you get a moment.
lower level

Sort into band: C=CC(=O)N(C(=O)C=C)c1c2ccccc2n2c(C)nc3ccccc3c12
upper level

* * *

- tested target: human cyclin-dependent kinase 2 (Cdk2) (Homo sapiens)
- Construct: poly-histidine; made in house; host or cells: E. coli
- procedure summary: Kinetic thiol consumption assay with wild type Cdk2 (C177)
- Type: binding
- Parameters: key: k(Cdk2) divided by k(model thiol)
- protocol conditions: Cdk2 WT, no additional mutations
Could you please mark Yes for values of Rate enhancement, Cdk2 WT below 0.5 and No for values at or above it?

As a guide, the following entries are already answered.
>>> cat("C=CC(=O)NC1CC(NC(=O)C2CCC2)C1 (centres unmarked) [CA-202]")
"No"
>>> cat("C=CC(=O)N(CCCN1CCOCC1)Cc1ccncc1 [CA-192]")
"Yes"
>>> cat("C=CC(=O)N1CCC(c2nc3ccccc3[nH]2)CC1 [EL-1152]")
"No"
>>> cat("C=CC(=O)N1CCN(C(=O)OC(C)(C)C)CC1 [CA-029]")
"Yes"
>>> cat("C=CC(=O)N(CC(=O)N1CCCC1)CC1CCCO1 (centres unmarked) [CA-080/239]")
"Yes"

Continue with the molecule presented below.
Please state whether Rate enhancement, Cdk2 WT is below 0.5 for C=CC(=O)N1CCCCCC1C/C=C/c1ccccc1 (centres unmarked) [CA-096/146]
Yes

* * *

- tested target: human cyclin-dependent kinase 2 (Cdk2) (Homo sapiens)
- Construct: poly-histidine; made in house; host or cells: E. coli
- procedure summary: Kinetic thiol consumption assay with wild type Cdk2 (C177)
- Type: binding
- protocol conditions: model thiol Cdk2[C177A, F80C, K278C]
result type: k(Cdk2)/k(Cdk2_mut) rate enhancement
Form field (numeric): enter value without unit.

>>> assay_result("C=CC(=O)N1CCn2cccc2C1c1ccccc1 (centres unmarked)")
1.586
>>> assay_result("C=CC(=O)NC(C)c1cc(OC)c(OC)c(OC)c1 (centres unmarked)")
1.51

Which k(Cdk2)/k(Cdk2_mut) rate enhancement is listed for C=CC(=O)Nc1ccc2nc(C)[nH]c2c1 ?
0.8966

// lookup k(Cdk2)/k(Cdk2_mut) rate enhancement for C=CC(=O)N1CCC2(CCCN(Cc3ccccc3)C2)C1 (centres unmarked)
2.693

So what's the measured k(Cdk2)/k(Cdk2_mut) rate enhancement for this one? C=CC(=O)NC1C[C@@H](C(=C)C)CC=C1C (some centres unmarked)
0.8773

Suppose we examine the molecule C=CC(=O)NCC1(NC(=O)OC(C)(C)C)CCCCC1 ; what k(Cdk2)/k(Cdk2_mut) rate enhancement value has been reported?
1.746

Data request, read-out k(Cdk2)/k(Cdk2_mut) rate enhancement, for C=CC(=O)N1CCCN(Cc2noc(C3CC3)n2)CC1
2.634

Tell me the measured k(Cdk2)/k(Cdk2_mut) rate enhancement of C=CC(=O)N1CC2CN(Cc3ccccc3)CC2C1 (centres unmarked) , please.
5.219

Please report the recorded k(Cdk2)/k(Cdk2_mut) rate enhancement for C=CC(=O)N1CC(Cc2ccccc2)C1 .
5.016

Which k(Cdk2)/k(Cdk2_mut) rate enhancement is listed for C=CC(=O)Nc1cccc(C(F)(F)F)c1 [BN-80] ?
0.3263

Sample C=CC(=O)NCCNC(=O)C1CCCN1S(=O)(=O)c1ccccc1 (centres unmarked) — what was its k(Cdk2)/k(Cdk2_mut) rate enhancement?
0.4329

* * *

Item-by-item account of k(Cdk2)/k(Cdk2_mut) rate enhancement
- tested target: human cyclin-dependent kinase 2 (Cdk2) (Homo sapiens)
- Construct: poly-histidine; made in house; host or cells: E. coli
- procedure summary: Kinetic thiol consumption assay with wild type Cdk2 (C177)
- Assay type: binding
- protocol conditions: model thiol Cdk2[C177A, F80C, K278C]
Enter the number alone.

Consider the worked cases shown below.
>>> assay_result("C=CC(=O)NCC1CN(C2CC2)CCO1 (stereo not drawn) [CA-038]")
0.9623
>>> assay_result("C=CC(=O)N1CCCc2cc(C(=O)OC)ccc21 [EL-1071]")
1.341
>>> assay_result("C=CC(=O)NC1(C2CC2)CC1 [CA-047]")
1.617
>>> assay_result("C=CC(=O)NCCc1c[nH]c2ccccc12 [EL-1174]")
0.131

Below: the item to evaluate.
Item C=CC(=O)N1CCC2(CCCCCC2)C1 [CA-093] has what recorded k(Cdk2)/k(Cdk2_mut) rate enhancement?
0.3873

* * *

molecules and their reported Rate constant with Cdk2 WT
- tested target: human cyclin-dependent kinase 2 (Cdk2) (Homo sapiens)
- Construct: poly-histidine; made in house; host or cells: E. coli
- procedure summary: Kinetic thiol consumption assay with wild type Cdk2 (C177)
- Type: binding
- protocol conditions: Protein: Cdk2; cysteine position WT; in h^-1
Respond with the number and no other words.

Before answering, review these 8 worked examples.
>>> assay_result("C=CC(=O)N1C(C(=O)c2ccccc2)C1c1ccccc1 (centres unmarked)")
0.000968
>>> assay_result("C=CC(=O)N(Cc1ccco1)Cc1ccco1")
0.2899
>>> assay_result("C=CC(=O)N1CCN(c2ccccc2[N+](=O)[O-])CC1")
0.007099
>>> assay_result("C=CC(=O)N(c1cccc2ncccc12)C1CCC1")
0.02299
>>> assay_result("C=CC(=O)NC(C)c1cccc(N2CCOCC2)c1 (centres unmarked)")
0.001028
>>> assay_result("C=CC(=O)N(CCCN1CCOCC1)Cc1ccncc1")
0.00584
>>> assay_result("C=CC(=O)NC1CCN(Cc2ccccc2)CC1")
0.001157
>>> assay_result("C=CC(=O)Nc1sc2c(c1C(=O)NC1CC1)CCC2")
0.743

Could you share which Rate constant with Cdk2 WT value was measured for C=CC(=O)NC1C2CC3CC(C2)CC1C3 (centres unmarked) ?
0.0009681

Can you look up the measured Rate constant with Cdk2 WT of C=CC(=O)Nc1ccc(-c2ncccn2)cc1 for me?
0.05015

Form field: reported Rate constant with Cdk2 WT of C=CC(=O)N1CCCC(N2C(=O)CC3(CCCC3)C2=O)C1 (centres unmarked)
0.001156

Record request: Rate constant with Cdk2 WT value, item C=CC(=O)N(C)C1C2CCOC2C1(C)C (centres unmarked)
0.003813

What does the record list as Rate constant with Cdk2 WT for C=CC(=O)Nc1ccccc1-c1ccccc1 ?
0.005124

* * *

- tested target: Cdk2(N272C) (C177A) (Homo sapiens, UniProt P24941, C177A/N272C)
- Construct: poly-histidine; made in house; host or cells: E. coli
- procedure summary: Kinetic thiol consumption assay with Cdk2 mutant N272C
- Type: binding
- Design: key: rate constant with Cdk2 ÷ rate constant with model thiol (fold)
- protocol conditions: Cdk2 N272, additional mutation C177A
- Method: To wells containing 150 μL thiol (Cdk2 or model thiol) (5 μM) in degassed phosphate buffer (pH 8) was added immobilized TCEP beads (2% v/v). After incubation of the fluorescence plates for 1 hour at room temperature, fluorescence measurements (excitation/emission of 380/470 nm) were taken on a PerkinElmer EnVision multilabel plate reader and processed with EnVision Workstation version 1.12. Fluorescence measurements were normalized against a DMSO/thiol only control and plotted against time. […]
Classify as follows. Reported Rate enhancement, Cdk2 N272 greater than or equal to 0.4: true. Reported Rate enhancement, Cdk2 N272 below: false.

Recorded results for 3 compounds are shown here.
>>> cat("N#Cc1ccncn1 [EN007]")
"false"
>>> cat("C=CC(=O)Nc1cccc(-c2cc3ccccc3[nH]2)c1 [EL-1098]")
"true"
>>> cat("C=CC(=O)N1CCOC2(CCCCC2)C1 [CA-193]")
"true"

API: above_or_equal(metric=Rate enhancement, Cdk2 N272, cutoff=0.4) for item C=CC(=O)N(CC(=O)NC1CC1)C1CC1 [CA-031]
true

Is reported Rate enhancement, Cdk2 N272 greater than or equal to 0.4 here: C=CC(=O)N1CCN(c2ccccc2[N+](=O)[O-])CC1 [EL-1134]
true

Determine whether measured Rate enhancement, Cdk2 N272 meets or exceeds 0.4 for C=CC(=O)NC(C)c1ccc2c(c1)OCO2 (stereo not drawn) [EL-1051]
false

Confirm if Rate enhancement, Cdk2 N272 reported for the compound C=CC(=O)NCCCN(C(=O)C1CCC1)C1CC1 [CA-060] is 0.4 or above.
true

Rate enhancement, Cdk2 N272 >= 0.4 for C=CC(=O)N1CC(Cc2ccccc2)C1 [CA-072] ?
true

Is the recorded value of Rate enhancement, Cdk2 N272 equal to or greater than 0.4 for this compound? C=CC(=O)N1CCN(C(=O)OCC)CC1c1cccs1 (stereo not drawn) [EL-1121]
true
